Every entry's value here was drawn from PubChem BioAssay (NCI).

# Test system: SW-620 colon
# Procedure Text: NCI-60 one-dose screen, 48 h
# Condition Info: 10 µM unless noted
Compounds without any hit were thinned out: in the full panel of roughly 83,000, 20% have a hit. Active and inactive are the calls of the source. The calls were made as follows: active = growth percent below 10; inactive = the rest.
Entry note: the call must match one of active, inactive

These recorded examples may help you get a feel for the data.
Compound: COc1cc(-c2csc(NC(=O)c3ccc(N4CCOCC4)c(C(F)(F)F)c3)n2)cc(OC)c1OC
Category Label: inactive
--
Compound: O=C(c1ccncc1)N1N=C(c2ccc(Cl)cc2)C[C@H]1c1cn(-c2ccccc2)nc1-c1ccccc1
Category Label: inactive
--
Compound: NC(Cc1ccc(O)c([N+](=O)[O-])c1)C(=O)O (stereo unspecified)
Category Label: inactive
--
Compound: CCCNc1nc2ccccc2c2c1S(=O)(=O)c1ccc(Cl)cc1C2=O
Category Label: active
--
Compound: CCCCCOC(=O)c1c(C)[nH]c(/C=C2\N=C(c3ccc[nH]3)C=C2OC)c1C
Category Label: active

Now, please, on to the next compound.
(Q) Can you look up the reported call for CCCCCCCCCc1ccc(OCCOCCOCCOCCOCCOCCOCCOCCOCCO)cc1 for me?
(A) inactive

----------
# System: HS 578T breast
# Procedure Text: NCI-60 one-dose screen, 48 h
# Condition Info: 10 µM unless noted
# Experimental: Growth inhibition of the HS 578T human tumor cell line is measured as a screen for anti-cancer activity. Cells are grown in 96 well plates and exposed to the test compound for 48 hours. Compounds are tested at a single concentration, which is 10^-5 M for most compounds. The reported endpoint is percent growth (GI% or GIPRCNT), where numbers from 0 - 100% represent growth inhibition, and numbers from -100% - 0 represent cell death. For example, a value of 40 represents 60% growth inhibition. […]
This is part of a sample that, as a whole, favours compounds with a hit. Of some 83,000 tested, about 20% had one in any assay. Activity calls are given as the source filed them. The calls were made as follows: active = growth percent below 10; inactive = the rest.
Entry note: the call must match one of active, inactive

These recorded examples may help you get a feel for the data.
Compound: Cc1ccc2c(n1)C(=O)C(Br)=C(C1CCCC1)C2=O
Category Label: inactive
//
Compound: O=C(Nc1cccc(-c2ccc(N3CCOCC3)nn2)c1)Nc1cccc(C(F)(F)F)c1
Category Label: inactive
//
Compound: O=S(=O)(Nc1cc(F)cc(Cl)c1)c1ccc(-c2cnc(C3CC3)o2)cc1
Category Label: active
//
Compound: COC1/C=C/OC2(C)Oc3c(C)c(O)c4c(O)c(c(/C=N/Nc5ccc([N+](=O)[O-])cc5[N+](=O)[O-])c(O)c4c3C2=O)NC(=O)C(C)=C/C=C/C(C)C(O)C(C)C(O)C(C)C(OC(C)=O)C1C (centres undefined)
Category Label: inactive

(Q) Can you look up the reported call for Cc1ccccc1/C=C/C(=O)c1cccc(OCCCCOc2cccc(C(=O)/C=C/c3ccccc3C)c2)c1 for me?
(A) inactive

(Q) Can you look up the reported call for Cc1ccc2c(c1)=C/C(=C\c1cc(-c3ccccc3)oc1O)C(=O)N=2 for me?
(A) inactive

(Q) Can you look up the reported call for O=c1scc(-c2ccc(C(F)(F)F)cc2)s1 for me?
(A) inactive

----------
# Tested on: MDA-MB-435 melanoma
# Procedure Text: NCI-60 one-dose screen, 48 h (100 = growth as untreated, 0 = no growth, -100 = all killed)
# Condition Info: 10 µM unless noted
About 83,000 compounds went through this panel and 20% of them were active in at least one assay; those are over-represented in the sample as a whole.
Output 1 (yes) for growth not less than 40%; output 0 (no) otherwise.

These recorded examples may help you get a feel for the data.
Compound: Cn1cc(C(=O)c2nc(-c3c[nH]c4ccccc34)no2)c2cc(F)ccc21
Category Label: 0 (no)
--
Compound: O=c1c2ccccc2n2cnc3ccc(Cl)c1c32
Category Label: 1 (yes)
--
Compound: N#CSc1c[nH]c2cccc(/C=C/C(=O)/C=C(/C=C/c3cccc4[nH]cc(SC#N)c34)OB(F)F)c12
Category Label: 0 (no)
--
Compound: CN1CCc2nc3sc(C(N)=O)c(N)c3c(-c3cccs3)c2C1
Category Label: 0 (no)
--
Compound: CCOc1ccccc1Cn1ccnc1CCc1c(Cl)c(O)cc(O)c1C(=O)OC
Category Label: 1 (yes)
--
Compound: Fc1ccc(CNc2c3ccccc3nc3ccccc23)c(F)c1
Category Label: 1 (yes)

Now, please, on to the next compound.
(Q) Assess whether reported growth for CCCc1c(OC(=O)c2ccccc2)nc2[nH]c(=O)sc2c1C sits at 40% or higher.
(A) 1 (yes)
